Tested on: HeLa
assay.details: Antiproliferative activity against human HeLa cells assessed as inhibition of cell growth incubated for 72 hrs by MTT assay
Assay type: functional, cell-based
Entries and their measured pIC50 follow.
Quick note: pIC50 means taking -log10 of the concentration in moles per liter.

C[C@]12CC[C@@H]3c4ccc(OCCCCCCCCCCCC[Se]C#N)cc4CC[C@H]3[C@@H]1CCC2=O    4.74
C[C@]12CC[C@@H]3c4ccc(OCCCC[Se]C#N)cc4CC[C@H]3[C@@H]1CCC2=O    4.85
C[C@]12CC[C@@H]3c4ccc(OCCCCCCCC[Se]C#N)cc4CC[C@H]3[C@@H]1CCC2=O    5.25
C[C@]12CC[C@@H]3c4cc(NC(=O)CCCCCCCCC[Se]C#N)c(O)cc4CC[C@H]3[C@@H]1CCC2=O    4.86
COc1ccc2c(c1)CC[C@@H]1[C@@H]2CC[C@]2(C)C(NC(=O)C[Se]C#N)CC[C@@H]12 (some centres not stated)    4.79
C[C@]12CC[C@@H]3c4cc(NC(=O)c5ccc(C[Se]C#N)cc5)c(O)cc4CC[C@H]3[C@@H]1CCC2=O    4.57

We next turn to a different molecule, shown below.
Exam item: // pIC50 lookup, key: C[C@]12CC[C@@H]3c4ccc(OCCC[Se]C#N)cc4CC[C@H]3[C@@H]1CCC2=O
Marked response: 4.74

###

System: SK-OV-3
assay.details: Antiproliferative activity against human SK-OV-3 cells assessed as inhibition of cell growth incubated for 72 hrs by MTT assay
Format: functional, cell-based
assay.conditions: SK-OV-3, 72 h
Entries and their measured pIC50 follow.
Quick note: pIC50 means taking -log10 of the concentration in moles per liter.

Exam item: // pIC50 lookup, key: C[C@]12CC[C@@H]3c4cc(NC(=O)c5ccc(C[Se]C#N)cc5)c(O)cc4CC[C@H]3[C@@H]1CCC2=O
Marked response: 4.31

Exam item: Repeat for the following molecule: COc1ccc2c(c1)CC[C@@H]1[C@@H]2CC[C@]2(C)C(OC(=O)c3ccc(C[Se]C#N)cc3)CC[C@@H]12 (some centres not stated)
Marked response: 4.25

###

Test system: HeLa
assay.details: Antiproliferative activity against human HeLa cells assessed as inhibition of cell growth incubated for 72 hrs by MTT assay
Format: functional, cell-based
Entries and their measured IC50 follow.
Supply the numeric figure in µM, leaving out any unit text.

COc1ccc2c(c1)CC[C@@H]1[C@@H]2CC[C@]2(C)C(OC(=O)C[Se]C#N)CC[C@@H]12 (stereo not given in full)    56.8
COc1ccc2c(c1)CC[C@@H]1[C@@H]2CC[C@]2(C)C(NC(=O)c3ccc(C[Se]C#N)cc3)CC[C@@H]12 (stereo not given in full)    9.6
COc1cc2c(cc1O)CC[C@@H]1[C@@H]2CC[C@]2(C)[C@@H](O)CC[C@@H]12    8.6
C[C@]12CC[C@@H]3c4ccc(O)cc4CC[C@H]3[C@@H]1CCC2NC(=O)c1ccc(C[Se]C#N)cc1 (stereo not given in full)    13.7
C[C@]12CC[C@@H]3c4cc(NC(=O)C[Se]C#N)c(O)cc4CC[C@H]3[C@@H]1CCC2=O    9.4
COc1ccc2c(c1)CC[C@@H]1[C@@H]2CC[C@]2(C)/C(=N/OC(=O)C[Se]C#N)CC[C@@H]12    26.3

Exam item: // IC50 lookup, key: C[C@]12CC[C@@H]3c4ccc(O)cc4CC[C@H]3[C@@H]1CCC2NC(=O)C[Se]C#N (stereo not given in full)
Marked response: 70.4

Exam item: Repeat for the following compound: COc1ccc2c(c1)CC[C@@H]1[C@@H]2CC[C@]2(C)/C(=N/OC(=O)c3ccc(C[Se]C#N)cc3)CC[C@@H]12
Marked response: 21

Exam item: Repeat for the following compound: C[C@]12CC[C@@H]3c4cc(NC(=O)CCCCCC[Se]C#N)c(O)cc4CC[C@H]3[C@@H]1CCC2=O
Marked response: 10.2

Exam item: Repeat for the following compound: COc1ccc2c(c1)CC[C@@H]1[C@@H]2CC[C@]2(C)C(OC(=O)c3ccc(C[Se]C#N)cc3)CC[C@@H]12 (stereo not given in full)
Marked response: 47.5

Exam item: Repeat for the following compound: C[C@]12CC[C@@H]3c4ccc(OCC[Se]C#N)cc4CC[C@H]3[C@@H]1CCC2=O
Marked response: 20.2

Exam item: Repeat for the following compound: C[C@]12CC[C@@H]3c4cc(NC(=O)CCCC[Se]C#N)c(O)cc4CC[C@H]3[C@@H]1CCC2=O
Marked response: 13.7

Exam item: Repeat for the following compound: C[C@]12CC[C@H](O)CC1=CC[C@@H]1[C@@H]2CC[C@]2(C)C(c3cccnc3)=CC[C@@H]12
Marked response: 16.9

Exam item: Repeat for the following compound: C[C@]12CC[C@@H]3c4ccc(OCCCCC[Se]C#N)cc4CC[C@H]3[C@@H]1CCC2=O
Marked response: 9.5
